system: horseradish peroxidase (HRP) tagged delF508-CFTR (Homo sapiens, UniProt P13569, DEL508-508)
Construct: expressed in transfected cells
Sequence (P13569 with tags, fused parts or gaps DEL508-508): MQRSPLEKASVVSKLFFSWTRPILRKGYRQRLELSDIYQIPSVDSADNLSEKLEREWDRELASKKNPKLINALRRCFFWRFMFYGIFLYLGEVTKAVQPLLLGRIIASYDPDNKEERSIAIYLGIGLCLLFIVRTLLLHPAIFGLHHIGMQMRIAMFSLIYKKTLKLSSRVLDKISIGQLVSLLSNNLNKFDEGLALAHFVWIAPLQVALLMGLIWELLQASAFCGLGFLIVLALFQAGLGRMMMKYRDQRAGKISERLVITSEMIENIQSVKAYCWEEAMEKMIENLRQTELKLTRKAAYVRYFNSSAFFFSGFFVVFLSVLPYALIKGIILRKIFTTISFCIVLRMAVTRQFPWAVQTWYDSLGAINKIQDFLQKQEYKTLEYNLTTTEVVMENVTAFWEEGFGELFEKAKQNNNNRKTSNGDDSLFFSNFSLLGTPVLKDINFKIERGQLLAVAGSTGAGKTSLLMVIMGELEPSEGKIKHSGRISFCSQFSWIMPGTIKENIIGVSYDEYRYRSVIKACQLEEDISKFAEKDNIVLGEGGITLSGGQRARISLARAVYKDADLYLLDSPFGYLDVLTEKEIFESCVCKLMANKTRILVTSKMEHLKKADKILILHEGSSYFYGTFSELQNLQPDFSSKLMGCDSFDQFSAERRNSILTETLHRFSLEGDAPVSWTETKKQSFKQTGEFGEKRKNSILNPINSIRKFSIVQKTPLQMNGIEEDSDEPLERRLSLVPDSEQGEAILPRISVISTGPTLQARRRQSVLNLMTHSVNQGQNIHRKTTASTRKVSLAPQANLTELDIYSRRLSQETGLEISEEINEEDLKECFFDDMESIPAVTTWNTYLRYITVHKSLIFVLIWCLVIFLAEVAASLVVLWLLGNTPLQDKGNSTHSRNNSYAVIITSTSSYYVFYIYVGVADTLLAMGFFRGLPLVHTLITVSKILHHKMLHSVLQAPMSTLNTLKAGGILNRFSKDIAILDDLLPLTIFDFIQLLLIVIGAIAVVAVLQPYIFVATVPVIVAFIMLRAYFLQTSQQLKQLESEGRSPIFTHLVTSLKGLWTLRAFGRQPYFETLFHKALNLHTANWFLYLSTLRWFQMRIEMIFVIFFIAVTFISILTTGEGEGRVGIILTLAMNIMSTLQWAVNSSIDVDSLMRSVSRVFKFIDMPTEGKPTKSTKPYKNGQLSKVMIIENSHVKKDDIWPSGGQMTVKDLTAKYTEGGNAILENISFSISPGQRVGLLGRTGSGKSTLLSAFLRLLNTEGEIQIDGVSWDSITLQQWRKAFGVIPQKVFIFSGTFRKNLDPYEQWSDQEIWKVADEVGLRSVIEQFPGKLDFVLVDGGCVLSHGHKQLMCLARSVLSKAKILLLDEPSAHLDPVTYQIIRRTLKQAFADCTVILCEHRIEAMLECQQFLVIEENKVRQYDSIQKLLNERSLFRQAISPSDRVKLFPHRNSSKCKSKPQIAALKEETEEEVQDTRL
experiment: Measurement of delF508-CFTR-HRP surface expression in CFBE41o- cells
Format: cell-based
recorded_conditions: delF508-CFTR-HRP surface expression, CFBE41o- cells; read-out: DelF508-CFTR-HRP EC50
quantity_name: EC50 (µM)

Solved entries:
| compound | EC50 (µM) |
| --- | --- |
| Cc1ccc(F)cc1-c1nc(NS(=O)(=O)c2cccc(N[C@@H]3CCOC[C@@H]3O)n2)ccc1Cl [Example 272] | 2.31 |
| Cc1ccc(F)cc1-c1nc(NS(=O)(=O)c2cccc(O[C@@H]3COC[C@@H]3O)n2)ccc1Cl [Example 289] | 2.36 |
| Cc1ccc(F)cc1-c1nc(NS(=O)(=O)c2cccc(N)n2)ccc1C(F)(F)F [Example 1] | 1.78 |

a. Cc1ccc(F)cc1-c1nc(NS(=O)(=O)c2cccc(N3CCC34CNC4)n2)ccc1Cl [Example 310]
b. Cc1ccccc1-c1nc(NS(=O)(=O)c2cccc(NC3CCC(C(=O)O)CC3)n2)ccc1C(F)(F)F (stereo not drawn) [Example 372]
Q. Return label of the item with the larger EC50. Candidates: a , b . # respond with the chosen item's label
A. a
(a: 4.98 µM, b: 2.25 µM)
